src = patent US20130217572A1

System: gum arabic
Assay: VHH binding to gum arabic in ELISA
Parameters: species or system acacia tree
Conditions: [VHH] 0.0117188 μg/ml (0.78125 nM); gum arabic 100 μg/ml
parameter: absorbance at 405 nm

>  <molecule>
VHH7A2: plant-binding VHH, listed among SEQ ID NO:1-42 (protein, listed as Lama glama, 7A2) VHH: QVQLQESGGGSVHPGGSLTLSCLASGFSLSNYGMGWFRQAPGKEREAVSCTSVPNGHIYYAESVKGRFTIVRDNAGNSVYLQMNSLKPEDAANYFCATTDCEAAHWGTWVNYYGQGTQVTVSS

>  <absorbance at 405 nm>
0.088

$$$$
>  <molecule>
VHH5E5: plant-binding VHH, listed among SEQ ID NO:1-42 (protein, listed as Lama glama, 5E5) VHH: QVQLQESGGGLVQPGGSLTLSCTASGFAMRRFGIGWFRQVVGKEREGVSCSNVHDGSTYYANYVKGRFTIVRDDTKNMLYLHMNSLRAEDTGVYSCATTDCEATAWGTYRGYFGQGTQVTVSS

>  <absorbance at 405 nm>
0.074

$$$$

Could you now consider this next molecule?
Query VHH 7D2 (VHH, Hexahistidine-tagged) VHH: QVQLQESGGGLVQPGRSLKVACAAAGFSLRYYGIGWFRQAPGKEREAVSCTSANDGSTYYRDSVRGRFTISRDDGKNTVYLQMNRLKPEDTAVYYCATTDCDATSWGTWINYYGQGTQVTVSS yields absorbance at 405 nm of 0.083
